Numbers sourced from PubChem BioAssay AID540333.

assay_info: antivirals protecting cells from dengue CPE – CPE readout, HTS (AID 540333)
recorded_conditions: Dengue virus CPE inhibition in host cells, at 20 µM
In all, about 10,000 compounds went through this assay and about 320 (3.2%) were called active. No stated cut-off is given here; in the data, active means CPE inhibition mostly above about 9.1% (no sharp cut-off); inactive means mostly below about 7.2%. The entries come from a sample that favours actives as a whole.
Possible outcomes: 1.0 for active, 0.0 for inactive

molecule=O=C(O)c1cccc(-c2nc3ccccc3[nH]2)c1 class=0.0
molecule=CCOC(=O)c1c(C)[nH]c(C)c1C(=O)COC(=O)/C=C/c1ccc(OC(F)F)cc1 class=1.0
molecule=c1ccc(-c2c3ccccc3nc3[nH]c4ccccc4c23)cc1 class=1.0
molecule="O=C(OC(C(=O)Nc1ccc(Cl)cc1C(F)(F)F)c1ccccc1)c1c(Cl)cccc1Cl (stereo unspecified)" class=1.0
molecule="N#Cc1cc(NCC2CCCO2)c([N+](=O)[O-])cc1C#N (stereo unspecified)" class=0.0
molecule=O=C(Nc1nc(-c2ccc(Oc3ccccc3)cc2)cs1)C1=COCCO1 class=1.0
molecule=Fc1ccc2nc(Nc3nc4cc5c(cc4s3)OCCO5)sc2c1 class=1.0
molecule=c1ccc2sc(Nc3nc4cc5c(cc4s3)OCO5)nc2c1 class=0.0
molecule=CN(C(=O)CSc1nc(N)c2c3c(sc2n1)CSC(C)(C)C3)c1ccccc1 class=0.0
molecule=Cc1ccccc1NC(=O)CSC1=NCCN1 class=0.0
molecule="Cc1cc(C)cc(NC(=O)C(c2ccccc2)N2CCCC2)c1 (stereo unspecified)" class=0.0

###

assay_info: antivirals protecting cells from dengue CPE – CPE readout, HTS (AID 540333)
recorded_conditions: Dengue virus CPE inhibition in host cells, at 20 µM
Out of some 10,000 compounds screened, about 320 (3.2%) were called active. Cut-off read from the data, not from the text of the source: active = CPE inhibition mostly above about 9.1% (no sharp cut-off); inactive = mostly below about 7.2%. This is one part of a sample in which actives are shown more often than they occur.
Possible outcomes: active, inactive

compound="CCOc1ccccc1NC(=S)N(Cc1cc2ccc(C)cc2[nH]c1=O)CC1CCCN1CC (stereo unspecified)" class=inactive
compound=Cn1cnnc1SCC(=O)Nc1cc(S(=O)(=O)N2CCCCCC2)ccc1Cl class=inactive
compound=CN(/N=C/c1cc([N+](=O)[O-])ccc1O)c1ccccc1 class=inactive
compound=O=C1c2cccc3c(N4CCOCC4)c([N+](=O)[O-])cc(c23)C(=O)N1c1cccc2ccccc12 class=inactive
compound=CCn1c(C)cs/c1=N\C(=S)Nc1ccccc1C class=inactive
compound=COc1cc(OC)cc(-c2c(-c3ccc(F)cc3)c3cc(-c4cnc(OC)nc4)ccc3n2C)c1 class=inactive
compound=COc1cccc(-c2c(-c3cc(OC)cc(OC)c3)n(C)c3ccc(Br)cc23)c1 class=inactive
compound=CCN(C(=O)COC(=O)c1cc(NS(=O)(=O)c2ccc(Cl)c([N+](=O)[O-])c2)ccc1O)C1CCCCC1 class=active
compound=CCC(=O)N/N=C(\C)CC(=O)Nc1ccccc1-c1ccccc1 class=inactive
compound=CCOC(=O)C(C)(C)N(Cc1ccccc1C)S(=O)(=O)c1ccc(Cl)c([N+](=O)[O-])c1 class=inactive
compound=CCOC(=O)C(C)(C)N(Cc1cccc(C)c1)S(=O)(=O)c1ccc(Cl)c([N+](=O)[O-])c1 class=inactive
compound=O=C(C[n+]1cc(-c2ccc(Cl)cc2)n2c1CCC2)N1c2ccccc2Sc2ccccc21 class=inactive
compound=COc1cc(OC)cc(-c2c(-c3cccs3)c3cc(-c4cccc5[nH]ccc45)ccc3n2C)c1 class=active
compound=COc1ccc(Nc2nc(-c3cccc([N+](=O)[O-])c3)nc3ccccc23)c(OC)c1 class=inactive
compound=O=C(C[n+]1cc(-c2ccc(Cl)c(Cl)c2)n2c1CCC2)N1c2ccccc2Sc2ccccc21 class=active
compound=CC(C)NC(=O)/C(C#N)=C/c1cccc(NC(=O)c2ccccc2Cl)c1 class=inactive
compound=COc1cc2cc(CN(Cc3cccs3)C(=S)Nc3ccccc3)c(=O)[nH]c2cc1OC class=inactive
compound=O=C(C[n+]1cc(-c2ccccc2)n2c1CCC2)N1c2ccccc2Sc2ccccc21 class=inactive
compound=COc1ccc(-c2nn(-c3ccccc3)cc2/C=C(/C#N)C(N)=O)cc1[N+](=O)[O-] class=inactive
compound=O=C(O)CC(CC(=O)O)c1ccsc1 class=inactive
compound=COC(=O)c1ccccc1NC(=S)N(Cc1ccc2c(c1)OCO2)Cc1cc2ccc(OC)cc2[nH]c1=O class=active
